Data credit: the supplement of paper PMC10724198

Test system: Saccharomyces cerevisiae
test_description: protein stability index of tFT-peptide fusion (C-terminal peptide) (PSI (0-1 scale)); higher = more stable (slower turnover)
run_conditions: genetic background: wild type; temperature: 30 C
The following sequences are shown together with reported protein stability index values.
readout_kind: protein stability index

> print(dat)
   polymer.sequence             readout.kind  reported.value
1      ARAPPLPPPPAL  protein stability index           0.698
2      HRLQFKGYPICA  protein stability index            0.33
3      ENNWILSIKEKT  protein stability index           0.747
4      PPSLSPFSACLS  protein stability index           0.669

---

The following sequences are shown together with reported protein stability index values.
System: Saccharomyces cerevisiae
test_description: protein stability index of tFT-peptide fusion (C-terminal peptide) (PSI (0-1 scale)); higher = more stable (slower turnover)
run_conditions: genetic background: das1 deletion; temperature: 30 C
readout_kind: protein stability index

> print(dat)
                          polymer.sequence  reported.value
1     SGPSAMTKFGPR [ARP2 C-terminal 12 aa]            0.69
2     LMVENFRKEYII [PTI1 C-terminal 12 aa]             0.7
3     QYQHQHQQDPRT [NAF1 C-terminal 12 aa]           0.701
4     GIMVSPMKTNQR [SWI5 C-terminal 12 aa]           0.708
5  ISVSSGIENFAT [YJL202C C-terminal 12 aa]           0.692
6     QRERINNYISVY [VMA6 C-terminal 12 aa]           0.352
7    MNGIPREAFVQF [MEX67 C-terminal 12 aa]            0.68
8     RKSKKDTDSDSD [BMT5 C-terminal 12 aa]             0.7

---

Tested on: Saccharomyces cerevisiae
test_description: protein stability index of tFT-peptide fusion (C-terminal peptide) (PSI (0-1 scale)); higher = more stable (slower turnover)
run_conditions: genetic background: doa10 deletion; temperature: 30 C
The following sequences are shown together with reported protein stability index values.
readout_kind: protein stability index

> print(dat)
    polymer.sequence             readout.kind  reported.value
 1      GSDGVGGTVLYA  protein stability index           0.638
 2      EFFILYFFLKVL  protein stability index           0.104
 3      YVGILCTGILTV  protein stability index            0.38
 4      SVLRCPVILLAY  protein stability index          0.0717
 5      PLFLLTFAITLV  protein stability index           0.152
 6      AFLFLFSITCIV  protein stability index           0.197
 7      RCRLYLNVVVLC  protein stability index           0.129
 8      CEVLVVVMCLWG  protein stability index           0.196
 9      GRWAFFTWLRWS  protein stability index           0.175
10      EGLDVRILIQVI  protein stability index           0.136
11      ALFVGVVLLVCW  protein stability index           0.154
12      TPVIPLIRVRDC  protein stability index           0.171
13      FLACYSSFLFVS  protein stability index          0.0703
14      RVRNSQVVAVVG  protein stability index           0.329
15      GFVCFIHLFLCF  protein stability index           0.471
16      RLSTTTTKQFIH  protein stability index           0.302
17      FLLAIVRGVWLA  protein stability index           0.154
18      YTVRRVWLVRSR  protein stability index           0.312
19      CYVFLCGSFVFV  protein stability index           0.317
20      GCVGLSFCVWVG  protein stability index           0.175
21      WSVCLLLLGRFC  protein stability index           0.347
22      WSHVPLAPLSCF  protein stability index           0.287
23      SMFFLFFFFFFF  protein stability index           0.432
24      CRLATILRITAL  protein stability index           0.193
25      IVVWCGIRYSIR  protein stability index           0.233
26      PFFSSLKYRRDH  protein stability index           0.117
27      VVCPCIIYVPGV  protein stability index           0.455
28      FLVVSSVGFPLL  protein stability index           0.618
29      LLCGVLFFFWVV  protein stability index           0.311
30      VPRGAALIFLCF  protein stability index           0.449
31      EWVWVVFSCVSW  protein stability index           0.293
32      CVPAPCGRASCR  protein stability index            0.63
33      RVLSLLGCFVVF  protein stability index           0.485
34      SLTNYQRLIHVC  protein stability index          0.0969
35      ACVRFPLVLVVF  protein stability index          0.0902
36      WFSAGSCRWVLC  protein stability index           0.126
37      VGTGVGEGGGVV  protein stability index           0.654
38      LPHIFFCLFSLL  protein stability index           0.203
39      VVMASSIIVVAG  protein stability index           0.105
40      VICVVLSKVFLF  protein stability index           0.416
41      LVGYSVFVLFFS  protein stability index            0.21
42      VRELGVGGWRRQ  protein stability index            0.11
43      VVFWFPFVLRCC  protein stability index          0.0639
44      FPSCYIWEVEVM  protein stability index           0.268
45      PPVLAPHLCFPP  protein stability index           0.673
46      VRLLLIFRLLVI  protein stability index           0.291
47      WQVPYQRLAILF  protein stability index           0.215
48      FSFSCFFFVLFV  protein stability index           0.265
49      MWFVGLCLHFFM  protein stability index           0.344
50      VIGFGEVWIRCV  protein stability index          0.0708
51      VVFVGRSIVVLT  protein stability index           0.336
52      VGIVWELGCWMG  protein stability index           0.279
53      VIWVLGALASWG  protein stability index           0.468
54      YIILLSRKCAFC  protein stability index           0.401
55      CVCVVVCWRCGF  protein stability index           0.276
56      DTHSRARAVLIA  protein stability index           0.237
57      VLLLLGGIVCVM  protein stability index           0.206
58      YYVIFHLFSFLI  protein stability index           0.288

---

System: Saccharomyces cerevisiae
test_description: protein stability index of tFT-peptide fusion (C-terminal peptide) (PSI (0-1 scale)); higher = more stable (slower turnover)
run_conditions: genetic background: wild type; temperature: 30 C
The following sequences are shown together with reported protein stability index values.
readout_kind: protein stability index

> print(dat)
    polymer.sequence             readout.kind  reported.value
 1      VGKYVVTKNGGC  protein stability index           0.694
 2      CVRPSFMSRSLR  protein stability index           0.719
 3      LEVVVVGGVGGG  protein stability index           0.687
 4      PPPPPPTPPPCL  protein stability index           0.694
 5      RRQQNHRQLCAT  protein stability index           0.401
 6      PTIRKDPLGFLR  protein stability index           0.707
 7      LPLPPRFRRLYL  protein stability index             0.7
 8      TISHYSLAPTQI  protein stability index           0.695
 9      RWRYHAYVITIL  protein stability index           0.138
10      LLPRSPLLPPLH  protein stability index           0.719
11      FCLSIFYRAFFD  protein stability index           0.537
12      CLFIAGGSDLSH  protein stability index             0.7
13      ATATPPAPPPSP  protein stability index           0.686
14      AYAPPSALPYPF  protein stability index           0.729
15      LHPPRPTPKHPA  protein stability index           0.608
16      VVSQSPTLGSNY  protein stability index           0.655
17      VLVSVSLRVCMV  protein stability index           0.162
18      IPGHRHTKRIFG  protein stability index           0.641
